All values here come from patent US8536354B2.

Please provide measured EC50 for the entries that follow.
STUDY SYSTEM: TmEcR (GAL4-EcR DEF with VP16-RXR partner) (Tenebrio molitor, UniProt O02035)
Sequence (O02035 194-491): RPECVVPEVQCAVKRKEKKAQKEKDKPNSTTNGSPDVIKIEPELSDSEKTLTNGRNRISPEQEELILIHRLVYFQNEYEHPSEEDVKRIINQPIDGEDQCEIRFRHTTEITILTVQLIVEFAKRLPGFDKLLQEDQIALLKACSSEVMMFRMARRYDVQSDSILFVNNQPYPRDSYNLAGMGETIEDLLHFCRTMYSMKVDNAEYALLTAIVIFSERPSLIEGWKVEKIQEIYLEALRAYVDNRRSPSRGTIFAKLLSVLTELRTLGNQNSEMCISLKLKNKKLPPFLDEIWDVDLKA
Sequence (P28704 1-520 partner): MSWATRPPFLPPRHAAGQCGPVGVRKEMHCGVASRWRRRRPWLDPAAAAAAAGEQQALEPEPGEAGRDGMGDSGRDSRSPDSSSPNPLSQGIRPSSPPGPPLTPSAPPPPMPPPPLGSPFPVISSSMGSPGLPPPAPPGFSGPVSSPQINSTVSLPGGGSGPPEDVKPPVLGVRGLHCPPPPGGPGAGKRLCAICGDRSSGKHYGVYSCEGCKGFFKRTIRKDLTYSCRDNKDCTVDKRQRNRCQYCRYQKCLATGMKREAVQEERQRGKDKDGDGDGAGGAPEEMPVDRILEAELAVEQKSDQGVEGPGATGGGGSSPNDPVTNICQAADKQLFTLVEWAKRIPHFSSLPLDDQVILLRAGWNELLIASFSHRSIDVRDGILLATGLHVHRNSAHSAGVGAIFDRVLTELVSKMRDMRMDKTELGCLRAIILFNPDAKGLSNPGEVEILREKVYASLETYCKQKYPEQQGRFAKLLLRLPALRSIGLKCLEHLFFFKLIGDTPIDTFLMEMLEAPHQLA
ASSAY INFO: Two-hybrid gene switch assay, luciferase reporter, TmEcR, mouse NIH3T3 cells
CONDITION SUMMARY: EC50, FIG. 16, GAL4-EcR (DEF)

The molecule listed as CC(C)(O)CC[C@H]1OC(C)(C)O[C@]1(C)[C@H]1CC[C@@]2(O)C3=CC(=O)[C@@H]4C[C@@H](O)[C@@H](O)C[C@]4(C)[C@H]3CC[C@]12C [20-hydroxyecdysone-20,22-acetonide] shows EC50 equal to ~3 µM

The molecule listed as CC(=O)C1CCC2(O)C3=CC(=O)C4CC(O)C(O)CC4(C)C3CCC12C (centres unmarked) [poststerone] shows EC50 equal to > 33 µM

The molecule listed as CC(C)(O)CC[C@@H](O)[C@](C)(O)[C@H]1CC[C@@]2(O)C3=CC(=O)[C@]4(O)C[C@@H](O)[C@@H](O)C[C@]4(C)[C@H]3CC[C@]12C [polypodine B] shows EC50 equal to ~3 µM

The molecule listed as C[C@H]([C@H](O)CCC(C)(C)O)[C@H]1CC[C@@]2(O)C3=CC(=O)[C@@H]4C[C@@H](O)[C@@H](O)C[C@]4(C)[C@H]3CC[C@]12C [ecdysone] shows EC50 equal to > 33 µM

The molecule listed as CC(C)CC[C@@H](O)[C@](C)(O)[C@H]1CC[C@@]2(O)C3=CC(=O)[C@@H]4C[C@@H](O)[C@@H](O)C[C@]4(C)[C@H]3CC[C@]12C [PoA, ponasterone A, reference compound] shows EC50 equal to 0.07 µM
